Tested on: CAKI-1 renal
Protocol: NCI tumour cell line growth inhibition, 48 h
Provide the reported TGI of each item.

Any idea what TGI was measured for O=C(C#Cc1ccccc1)Nc1ccccc1CC(c1c[nH]c2ccccc12)c1c[nH]c2ccccc12 ?
> 100 µM

Any idea what TGI was measured for C#Cc1cccc(NC(=O)C2CCCCN2C(=O)CCl)c1 (stereo not drawn) ?
26.3 µM

Any idea what TGI was measured for CN(CCCNC(=O)c1[nH]nc2c1ccc1ccccc12)CCCNC(=O)c1[nH]nc2c1ccc1ccccc12 ?
33.6 µM

Any idea what TGI was measured for CNC(=O)/C(C#N)=C(\N)N1CCCC1 ?
> 100 µM

Any idea what TGI was measured for O=C(O)C(=Cc1ccc(-c2ccc([N+](=O)[O-])cc2)o1)C(=O)O ?
> 100 µM

Any idea what TGI was measured for CN1CN(c2ccccc2)C2(CCN(C(=O)OC(C)(C)C)CC2)C1=O ?
> 100 µM

Any idea what TGI was measured for O=C(COc1ccc(Cl)cc1Cl)NNc1ccc([N+](=O)[O-])cc1 ?
> 100 µM

Any idea what TGI was measured for Nc1nc(Cl)cc(Oc2ccc(Cl)cc2)n1 ?
> 100 µM
